Assay: Stability of the compound in 1:1 ratio of DTT:H2O2 at 0.5 mg/ml after 1 hr by redox stability/RP-HPLC assay
Type: physicochemical
Conditions: 1:1 DTT:H2O2; read-out: Stability
Where a SMILES comes first, the peptide text is derived from it.
readout.kind: remaining at 1 h, 0.5 mg/ml (%)

• CC[C@H](C)[C@H](NC(=O)[C@H](CC(=O)O)NC(=O)[C@@H](NC(=O)[C@H](CS)NC(C)=O)C(C)C)C(=O)N[C@@H](CC(N)=O)C(=O)N[C@@H](CC(N)=O)C(=O)N[C@@H](CC(N)=O)C(=O)N[C@@H](CS)C(N)=O (Ac-CVDINNNC-NH2) = 55
